# Test system: ExoS translocation from P. aeruginosa Pa388 into HEp-2 cells
# Type: cell-based
Readout Label: ExoS-dependent cell rounding

Consider the reported ExoS-dependent cell rounding for these compounds:
1) Cc1nn(-c2ccccc2)c(C)c1/N=C/c1c(O)ccc2ccccc12 [Compound C20]    reduced cell-rounding
2) c1ccc2c(-c3csc(-c4ccncc4)n3)c[nH]c2c1 [Compound C24, 4-(1H-indol-3-yl)-2-(4-pyridyl)thiazole]    reduced cell-rounding
3) CCOc1ccc(NC(=O)c2cnccn2)cc1 [Compound C7, N-(4-ethoxyphenyl)pyrazine-2-carboxamide]    little or no effect
4) Cc1ccc(NC(=O)Nc2cc3c(cc2N2CCCC2)n(C)c(=O)n3C)cc1C [Compound C34]    reduced cell-rounding
5) Cc1ccc(C2=N/C(=C/Nc3ccc4c(c3)OCCO4)C(=O)O2)cc1 [Compound C38]    reduced cell-rounding

Short answer for O=C1NC2=C(C(=O)c3ccccc32)C(c2ccccc2)S1 (stereo not shown) [Compound C15] : ExoS-dependent cell rounding was little or no effect

The reported value for O=C(c1coc2nc3ccccc3nc12)N1CCN(c2ccccc2)CC1 [Compound C19] in terms of ExoS-dependent cell rounding is little or no effect
